Field: Tubulin Assay Rel. Rate. Provide a value for each of the compounds that follow.
- Tested on: tubulin
- protocol_text: Tubulin binding assay (Tubulin Assay), method of Parness et al.
- condition_context: compared to taxol and taxotere
Give the figure only, with no unit attached.

Input CC(=O)O[C@H]1C(=O)[C@@]2(C)[C@H]([C@H](OC(=O)c3ccccc3)[C@]3(O)C[C@H](OC(=O)[C@H](O)[C@@H](NC(=O)c4ccc(F)cc4)c4ccc(Cl)cc4)C(C)=C1C3(C)C)[C@]1(OC(C)=O)CO[C@@H]1C[C@@H]2O . Output Tubulin Assay Rel. Rate: 88

COc1ccc([C@H](NC(=O)c2ccc(C(C)(C)C)cc2)[C@@H](O)C(=O)O[C@H]2C[C@@]3(O)[C@@H](OC(=O)c4ccccc4)[C@@H]4[C@]5(OC(C)=O)CO[C@@H]5C[C@H](O)[C@@]4(C)C(=O)[C@H](OC(C)=O)C(=C2C)C3(C)C)cc1 has a reported Tubulin Assay Rel. Rate of 44

For reference, reported Tubulin Assay Rel. Rate for COc1ccc([C@H](NC(=O)c2ccccc2)[C@@H](O)C(=O)O[C@H]2C[C@@]3(O)[C@@H](OC(=O)c4ccccc4)[C@@H]4[C@]5(OC(C)=O)CO[C@@H]5C[C@H](O)[C@@]4(C)C(=O)[C@H](OC(C)=O)C(=C2C)C3(C)C)cc1OC stands at 26

Note to self: Tubulin Assay Rel. Rate recorded for CC(=O)O[C@H]1C(=O)[C@@]2(C)[C@H]([C@H](OC(=O)c3ccccc3)[C@]3(O)C[C@H](OC(=O)[C@H](O)[C@@H](NC(=O)c4ccc(C)cc4)c4ccccc4)C(C)=C1C3(C)C)[C@]1(OC(C)=O)CO[C@@H]1C[C@@H]2O was 110

* * *

Kindly supply the reported Tubulin Assay Rel. Rate values for the records listed here.
- System: tubulin
- protocol_text: Tubulin binding assay (Tubulin Assay), method of Parness et al.
- condition_context: compared to taxol and taxotere
Write the number on its own, no unit after it.

GET /values?item= COc1ccc(C(=O)N[C@@H](c2ccc(F)cc2)[C@@H](O)C(=O)O[C@H]2C[C@@]3(O)[C@@H](OC(=O)c4ccccc4)[C@@H]4[C@]5(OC(C)=O)CO[C@@H]5C[C@H](O)[C@@]4(C)C(=O)[C@H](OC(C)=O)C(=C2C)C3(C)C)cc1 &system= tubulin returns Tubulin Assay Rel. Rate: 97

Form field Tubulin Assay Rel. Rate for item CC(=O)O[C@H]1C(=O)[C@@]2(C)[C@H]([C@H](OC(=O)c3ccccc3)[C@]3(O)C[C@H](OC(=O)[C@H](O)[C@@H](NC(=O)c4ccccc4)c4ccc([N+](=O)[O-])cc4)C(C)=C1C3(C)C)[C@]1(OC(C)=O)CO[C@@H]1C[C@@H]2O on tubulin: 105

* * *

- Tested on: tubulin
- protocol_text: Tubulin binding assay (Tubulin Assay), method of Parness et al.
- condition_context: compared to taxol and taxotere
Task for the reader: assign each of the following compounds its reported Tubulin Assay Init. Peak.
Answer with a number only.

Tubulin Assay Init. Peak reading for CC(=O)O[C@H]1C(=O)[C@@]2(C)[C@H]([C@H](OC(=O)c3ccccc3)[C@]3(O)C[C@H](OC(=O)[C@H](O)[C@@H](NC(=O)c4ccc(Br)cc4)c4ccc(F)cc4)C(C)=C1C3(C)C)[C@]1(OC(C)=O)CO[C@@H]1C[C@@H]2O : 88

Sure, the documented Tubulin Assay Init. Peak for CC(=O)O[C@H]1C(=O)[C@@]2(C)[C@H]([C@H](OC(=O)c3ccccc3)[C@]3(O)C[C@H](OC(=O)[C@H](O)[C@@H](NC(=O)c4ccccc4)c4ccc([N+](=O)[O-])cc4)C(C)=C1C3(C)C)[C@]1(OC(C)=O)CO[C@@H]1C[C@@H]2O is 114

The measured Tubulin Assay Init. Peak associated with CC(=O)O[C@H]1C(=O)[C@@]2(C)[C@H]([C@H](OC(=O)c3ccccc3)[C@]3(O)C[C@H](OC(=O)[C@H](O)[C@@H](NC(=O)c4ccc(C)cc4)c4ccc(Cl)cc4)C(C)=C1C3(C)C)[C@]1(OC(C)=O)CO[C@@H]1C[C@@H]2O reads 101

For CC(=O)O[C@H]1C(=O)[C@@]2(C)[C@H]([C@H](OC(=O)c3ccccc3)[C@]3(O)C[C@H](OC(=O)[C@H](O)[C@@H](NC(=O)c4ccc(Cl)cc4)c4ccccc4)C(C)=C1C3(C)C)[C@]1(OC(C)=O)CO[C@@H]1C[C@@H]2O the compound record lists Tubulin Assay Init. Peak as 75
